- target under test: HIV-1 PR (Human immunodeficiency virus type 1 group M subtype B, UniProt P04585)
- measurement description: HIV-protease inhibitory activity assay (FRET peptide substrate)
- details: Test Example 1
measure: IC50 (nM)
Output spec: scalar in nM, unitless text.

Here's what some known entries look like.
>>> recorded_value("COc1ccc(S(=O)(=O)N(CC(C)C)CC(O)C(Cc2ccc(OCc3cc(Cc4ccc(F)cc4)cnc3C(=O)O)cc2)NC(=O)OC2COC3(C)OCCC23)cc1 (stereo not shown) [Compound I-308]")
1.91
>>> recorded_value("COc1ccc(S(=O)(=O)N(CC(C)C)C[C@@H](O)[C@H](Cc2ccc(OCc3ccccc3-c3sc(-c4ccccc4)nc3C(=O)O)cc2)NC(=O)O[C@H]2CO[C@H]3OCC[C@H]32)cc1 [Compound I-3]")
1.02
>>> recorded_value("COc1ccc(S(=O)(=O)N(CC(C)C)C[C@@H](O)[C@H](Cc2ccc(OCc3ccccc3-c3sc4c(c3C(=O)O)CC(C)(C)CC4)cc2)NC(=O)O[C@H]2CCC[C@H]3O[C@@H]4OCC[C@@H]4[C@@H]23)cc1 [Compound I-909]")
3.25
>>> recorded_value("COc1ccc(S(=O)(=O)N(CC(C)C)CC(O)C(Cc2ccc(N(CCCC(F)(F)F)Cc3ccccc3-c3sc4c(c3C(=O)O)CC(C)(C)CC4)cc2)NC(=O)OC2COC3(C)OCCC23)cc1 (stereo not shown) [Compound I-427]")
10.4
>>> recorded_value("COc1ccc(S(=O)(=O)N(CC(C)C)CC(O)C(Cc2ccc(NCc3ccccc3-c3csc4c(C(=O)O)cccc34)cc2)NC(=O)OC2COC3(C)OCCC23)cc1 (stereo not shown) [Compound I-898]")
1.78

### Prompt For the compound COc1ccc(S(=O)(=O)N(CC(C)C)CC(O)C(Cc2ccc(NCc3nc4ccccc4cc3-c3sc4c(c3C(=O)O)CC(C)(C)CC4)cc2)NC(=O)OC2COC3(C)OCCC23)cc1 (stereo not shown) [Compound I-568] , give its reported IC50.
### Response 1.54

### Prompt For the compound COc1ccc(S(=O)(=O)N(CC(C)C)CC(O)C(Cc2ccc(N(C)Cc3cccc(C)c3C(=O)Nc3sc4c(c3C(=O)O)CC(C)(C)CC4)cc2)NC(=O)OC2COC3(C)OCCC23)cc1 (stereo not shown) [Compound I-747] , give its reported IC50.
### Response 4.35

### Prompt For the compound CC(C)CN(CC(O)C(Cc1ccc(OCc2cnc(C(=O)O)c(-c3ccc(F)cc3F)c2)cc1)NC(=O)OC1COC2(C)OCCC12)S(=O)(=O)c1ccc2ncsc2c1 (stereo not shown) [Compound I-157] , give its reported IC50.
### Response 1.22

----------
- target under test: HIV-1 PR (Human immunodeficiency virus type 1 group M subtype B)
- measurement description: HIV-protease inhibitory activity assay (FRET peptide substrate)
- details: Test Example 1
# pIC50 annotations
As a rule, pIC50 stands for the negative log10 of the concentration, concentration in M.

Here's what some known entries look like.
>>> recorded_value("COc1ccc(S(=O)(=O)N(CC(C)C)CC(O)C(Cc2ccc(NCc3ccccc3-c3sc4c(c3C(=O)O)CC(C)(C)CC4)cc2)NC(=O)OC2COC3OCC(OC)C23)cc1 (centres unmarked) [Compound I-853]")
8.70
>>> recorded_value("COc1ccc(S(=O)(=O)N(CC(C)C)CC(O)C(Cc2ccc(C(=O)NCc3ccccc3-c3sc4c(c3C(=O)O)CC(C)(C)CC4)cc2)NC(=O)OC2COC3(C)OCCC23)cc1 (centres unmarked) [Compound I-263]")
8.47
>>> recorded_value("COc1ccc(S(=O)(=O)N(CC(C)C)CC(O)C(Cc2ccc(OCc3ccccc3-c3ccc4c(c3)C(=O)C(c3ccccc3C)C4=O)cc2)NC(=O)OC2COC3(C)OCCC23)cc1 (centres unmarked) [Compound I-176]")
9.00
>>> recorded_value("COc1ccc(S(=O)(=O)N(CC(C)C)CC(O)C(Cc2ccc(NCc3cc(-c4sc5c(c4C(=O)O)CC(C)(C)CC5)ccc3C)cc2)NC(=O)OC2COC3(C)OCCC23)cc1 (centres unmarked) [Compound I-550]")
8.76

### Prompt For the molecule COc1ccc(S(=O)(=O)N(CC(C)C)CC(O)C(Cc2ccc(N(C)Cc3cccc(F)c3-c3sc4c(c3C(=O)O)CC(C)(C)CC4)cc2)NC(=O)OC2COC3(C)OCCC23)cc1 (centres unmarked) [Compound I-493] , give its reported pIC50.
### Response 8.61

----------
- target under test: HIV-1 PR (Human immunodeficiency virus type 1 group M subtype B)
- measurement description: HIV-protease inhibitory activity assay (FRET peptide substrate)
- details: Test Example 1
measure: IC50
Answer format: value, then unit.

>>> recorded_value("COc1ccc(S(=O)(=O)N(CC(C)C)CC(O)C(Cc2ccc(NCc3cc(C(F)(F)F)ccc3-c3sc4c(c3C(=O)O)CC(C)(C)CC4)cc2)NC(=O)OC2COC3OCCC23)cc1 (centres unmarked) [Compound I-868]")
"4.3 nM"

### Prompt For the compound COc1ccc(S(=O)(=O)N(CC(C)C)CC(O)C(Cc2ccc(OCc3ccccc3-c3sc4c(c3C(=O)O)C3CC(C4)C3(C)C)cc2)NC(=O)OC2COC3OCCC23)cc1 (centres unmarked) [Compound I-829] , give its reported IC50.
### Response 1.2 nM

### Prompt For the compound COc1ccc(S(=O)(=O)N(CC(C)C)CC(O)C(Cc2ccc(NCc3cccc(-c4sc5c(c4C(=O)O)CC(C)(C)CC5)c3C)cc2)NC(=O)OC2COC3(C)OCCC23)cc1 (centres unmarked) [Compound I-292] , give its reported IC50.
### Response 2.68 nM

### Prompt For the compound CC1(C)CCc2sc(NC(=O)c3ccccc3CNc3ccc(CC(NC(=O)OC4COC5(C)OCCC45)C(O)CN(CC4CCCC4)S(=O)(=O)c4ccc5ncsc5c4)cc3)c(C(=O)O)c2C1 (centres unmarked) [Compound I-601] , give its reported IC50.
### Response 3.26 nM

### Prompt For the compound COc1ccc(S(=O)(=O)N(CC(C)C)CC(O)C(Cc2ccc(N3CCC(c4ccccc4-c4sc5c(c4C(=O)O)CC(C)(C)CC5)C3)cc2)NC(=O)OC2COC3(C)OCCC23)cc1 (centres unmarked) [Compound I-522] , give its reported IC50.
### Response 13.6 nM

----------
- target under test: HIV-1 PR (Human immunodeficiency virus type 1 group M subtype B, UniProt P04585)
- measurement description: HIV-protease inhibitory activity assay (FRET peptide substrate)
- Assay type: biochemical
- details: Test Example 1
measure: pIC50
As a rule, pIC50 stands for the negative log10 of the concentration, concentration in M.

>>> recorded_value("COc1ccc(S(=O)(=O)N(CC(C)C)CC(O)C(Cc2ccc(NCc3ccc(C(=O)O)cc3)cc2)NC(=O)OC2COC3(C)OCCC23)cc1 (stereo not drawn)")
8.73

### Prompt For the compound COc1ccc(S(=O)(=O)N(CC(C)C)CC(O)C(Cc2ccc(NCC3CC(C)(C)CC3c3sc4c(c3C(=O)O)CC(C)(C)CC4)cc2)NC(=O)OC2COC3OCCC23)cc1 (stereo not drawn) , give its reported pIC50.
### Response 8.67

### Prompt For the compound COc1ccc(S(=O)(=O)N(CC(C)C)CC(O)C(Cc2ccc(NCC3CC(C)(C)CCC3c3sc4c(c3C(=O)O)CC(C)(C)CC4)cc2)NC(=O)OC2COC3OCCC23)cc1 (stereo not drawn) [Compound I-887] , give its reported pIC50.
### Response 8.55

----------
# rat_CLt annotations
- measurement description: Evaluation of total body clearance (CLtot), intravenous administration
- Format: in vivo, Sprague-Dawley (SD)
- details: rat (SD), intravenous administration 0.5-10 mg/kg; CLtot = dose/AUC

Here's what some known entries look like.
>>> recorded_value("COc1ccc(S(=O)(=O)N(CC(C)C)CC(O)C(Cc2ccc(NCc3cc4ccccc4c(-c4sc5c(c4C(=O)O)CC(C)(C)CC5)n3)cc2)NC(=O)OC2COC3(C)OCCC23)cc1 (stereo not shown) [Compound I-453]")
"0.593 mL/min/kg"
>>> recorded_value("COc1ccc(S(=O)(=O)N(CC(C)C)CC(O)C(Cc2ccc(N(C)Cc3cc(C(F)(F)F)ccc3-n3nc4c(c3C(=O)O)CC(C)(C)CC4)cc2)NC(=O)OC2COC3(C)OCCC23)cc1 (stereo not shown) [Compound I-379]")
"0.173 mL/min/kg"
>>> recorded_value("COc1ccc(S(=O)(=O)N(CC(C)C)CC(O)C(Cc2ccc(NCC3CCCCC3C(=O)Nc3sc4c(c3C(=O)O)CC(C)(C)CC4)cc2)NC(=O)OC2COC3(C)OCCC23)cc1 (stereo not shown) [Compound I-614]")
"0.146 mL/min/kg"
>>> recorded_value("COc1ccc(S(=O)(=O)N(CC(C)C)CC(O)C(Cc2ccc(NCc3ccccc3NC(=O)c3sc4c(c3C(=O)O)CC(C)(C)CC4)cc2)NC(=O)OC2COC3(C)OCCC23)cc1 (stereo not shown) [Compound I-574]")
"1.01 mL/min/kg"
>>> recorded_value("COc1ccc(S(=O)(=O)N(CC(C)C)CC(O)C(Cc2ccc(N3CCC(Oc4ccccc4-c4sc5c(c4C(=O)O)CC(C)(C)CC5)C3)cc2)NC(=O)OC2COC3(C)OCCC23)cc1 (stereo not shown) [Compound I-234]")
"1.49 mL/min/kg"

### Prompt For the compound COc1ccc(S(=O)(=O)N(CC(C)C)CC(O)C(Cc2ccc(N3CCC(Oc4ccc(C(F)(F)F)cc4-c4sc5c(c4C(=O)O)CC(C)(C)CC5)C3)cc2)NC(=O)OC2COC3(C)OCCC23)cc1 (stereo not shown) [Compound I-514] , give its reported rat_CLt.
### Response 3.01 mL/min/kg
